system: OCI-Ly10; experiment: Cytotoxicity against human OCILY10 cells assessed as inhibition of cell proliferation incubated for 72 hrs by CCK-8 assay; format: functional, cell-based; conditions: OCI-Ly10, 72 h
Assignment: determine reported pIC50 for the given compounds.
Kindly note that pIC50 refers to -log10 of the concentration in mol/L and answer with the value alone.

Please tell me: pIC50 of `CC1(C)Cc2cc(NC(=O)c3cnn4cccnc34)c(N3CCC(CO)CC3)cc2O1` , system OCI-Ly10? 4.91

Please tell me: pIC50 of `Cc1ccc(-c2cc3c(cc2NC(=O)c2coc(-c4ccnc(N)c4)n2)CC(C)(C)O3)cn1` , system OCI-Ly10? 5.50

Please tell me: pIC50 of `CC1(C)Cc2cc(NC(=O)c3coc(-c4ccnc(N)c4)n3)c(N3CCOCC3)cc2O1` , system OCI-Ly10? 6.96

Please tell me: pIC50 of `CC1(C)Cc2cc(NC(=O)c3coc(-c4ccnc(N)c4)n3)c(-c3ccoc3)cc2O1` , system OCI-Ly10? 6.40

Please tell me: pIC50 of `Cn1cc(-c2cc3c(cc2NC(=O)c2coc(-c4ccnc(N)c4)n2)CC(C)(C)O3)cn1` , system OCI-Ly10? 6.61

Please tell me: pIC50 of `CC1(C)Cc2cc(NC(=O)c3coc(-c4ccnc(N)c4)n3)c(N3CCC(CO)CC3)cc2O1` , system OCI-Ly10? 6.47

Please tell me: pIC50 of `Cc1ncc(-c2cc3c(cc2NC(=O)c2coc(-c4ccnc(N)c4)n2)CC(C)(C)O3)cn1` , system OCI-Ly10? 6.08

Please tell me: pIC50 of `CC1(C)Cc2cc(NC(=O)c3coc(-c4ccnc(N)c4)n3)c(-c3cncnc3)cc2O1` , system OCI-Ly10? 6.17

###

assay: Cytotoxicity against human GM00637 cells assessed as inhibition of cell proliferation incubated for 72 hrs by CCK-8 assay; assay type: toxicity, cell-based
Assignment: determine reported IC50 at 72 h for the given compounds.
// units = µM; emit number, no label

Requested read-out: IC50 at 72 h. Entry: `Cn1cc(-c2cc3c(cc2NC(=O)c2coc(-c4ccnc(N)c4)n2)CC(C)(C)O3)cn1` 1.52

Requested read-out: IC50 at 72 h. Entry: `CC1(C)Cc2cc(NC(=O)c3coc(-c4ccnc(N)c4)n3)c(N3CCOCC3)cc2O1` 0.312

Requested read-out: IC50 at 72 h. Entry: `CC1(C)Cc2cc(NC(=O)c3coc(-c4ccnc(N)c4)n3)c(-c3cncnc3)cc2O1` 4.63

###

Assignment: determine reported IC50 for the given compounds.
Target: Interleukin-1 receptor-associated kinase 4 (Homo sapiens, UniProt Q9NWZ3)
Sequence (Q9NWZ3 whole entry): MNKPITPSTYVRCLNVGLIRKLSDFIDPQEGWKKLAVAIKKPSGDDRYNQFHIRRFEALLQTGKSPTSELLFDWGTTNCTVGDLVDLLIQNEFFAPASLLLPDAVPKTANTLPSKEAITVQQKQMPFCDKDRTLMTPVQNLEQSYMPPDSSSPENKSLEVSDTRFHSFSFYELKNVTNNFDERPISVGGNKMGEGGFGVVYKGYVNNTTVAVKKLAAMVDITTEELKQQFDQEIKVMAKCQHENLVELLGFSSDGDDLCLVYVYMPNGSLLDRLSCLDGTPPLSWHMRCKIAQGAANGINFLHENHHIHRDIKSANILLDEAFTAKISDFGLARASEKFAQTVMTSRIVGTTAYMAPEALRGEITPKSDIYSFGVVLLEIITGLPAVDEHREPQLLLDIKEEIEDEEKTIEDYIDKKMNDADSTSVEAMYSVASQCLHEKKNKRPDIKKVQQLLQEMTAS

Requested read-out: IC50. Entry: `CC1(C)Cc2cc(NC(=O)c3coc(N4CCC[C@@H](N)C4)n3)c(N3CCC(CO)CC3)cc2O1` > 100 nM

Requested read-out: IC50. Entry: `CC1(C)Cc2cc(NC(=O)c3coc(-c4ccnc(N)c4)n3)c(-c3ccnc(C#N)c3)cc2O1` > 100 nM

Requested read-out: IC50. Entry: `CC1(C)Cc2cc(NC(=O)c3cccc(-c4ccc(N)nc4)n3)c(N3CCC(CO)CC3)cc2O1` > 100 nM

###

assay: Cytotoxicity against human GM00637 cells assessed as inhibition of cell proliferation incubated for 72 hrs by CCK-8 assay; format: toxicity, cell-based
quantity_kind: IC50 at 72 h

Requested read-out: IC50 at 72 h. Entry: `Cc1ncc(-c2cc3c(cc2NC(=O)c2coc(-c4ccnc(N)c4)n2)CC(C)(C)O3)cn1` > 50 µM

Requested read-out: IC50 at 72 h. Entry: `Cc1ccc(-c2cc3c(cc2NC(=O)c2coc(-c4ccnc(N)c4)n2)CC(C)(C)O3)cn1` > 50 µM

Requested read-out: IC50 at 72 h. Entry: `CC1(C)Cc2cc(NC(=O)c3coc(-c4ccnc(N)c4)n3)c(-c3ccoc3)cc2O1` > 50 µM

Numbers sourced from ChEMBL document CHEMBL5370531.
